Test system: MCF7
Assay: Antiproliferation activity against human MCF-7 cells assessed as reduction in cell viability after 72 hrs by CCK8 assay
Assay type: functional, cell-based
Conditions: MCF7, 72 h
pIC50: −log10 of the molar value.
pIC50 values, listed per item

itemSmiles | experimentalTarget | pIC50
O=C(/C=C/c1ccc(O)cc1)c1ccc(O)cc1O | MCF7 | 4.75
Cc1nc(C)c(/C=C/C(=O)c2ccc(NC(=O)c3ccc(F)cc3)cc2)nc1C | MCF7 | 5.81
Cc1nc(C)c(/C=C/C(=O)c2ccc(NC(=O)c3ccccc3)cc2)nc1C | MCF7 | 6.00
Cc1nc(C)c(C)nc1C | MCF7 | 4.53
COc1cc(C(=O)Nc2ccc(C(=O)/C=C/c3nc(C)c(C)nc3C)cc2)cc(OC)c1OC | MCF7 | 5.56
COc1ccc(C(=O)Nc2ccc(C(=O)/C=C/c3nc(C)c(C)nc3C)cc2)cc1OC | MCF7 | 5.78
Cc1ccc(C(=O)Nc2ccc(C(=O)/C=C/c3nc(C)c(C)nc3C)cc2)cc1 | MCF7 | 5.93
COc1cc(OC)cc(C(=O)Nc2ccc(C(=O)/C=C/c3nc(C)c(C)nc3C)cc2)c1 | MCF7 | 5.20
COc1ccc(C(=O)Nc2ccc(C(=O)/C=C/c3nc(C)c(C)nc3C)cc2)cc1 | MCF7 | 5.85
